Method summary: sensitizers of A549 cells to miR-34 induction, primary screen, imaging, A549 dox-inducible miR-34, nuclei and caspase counts (AID 1347080)
Study conditions: A549 miR-34 inducible, Hoechst nuclei count, 48 h; measured here: relative caspase fold change +Dox/-Dox
Kindly apply the following: y if fold change is less than 1, n in every other case.

Criterion: fold change strictly below 1. Is it met by C=CCCCCCCCCC(=O)O ?
n

Report whether reported fold change is lower than 1 (strictly) for CN1C(=O)C(c2c[nH]c3ccccc23)=C(c2c[nH]c3ccccc23)C1=O
n

Identify whether the compound CC(C)C1CCC(C(=O)N[C@H](Cc2ccccc2)C(=O)O)CC1 (stereo not given in full) records fold change below 1.
n

In the record for CC1(C)O[C@@H]2C[C@H]3[C@@H]4CCC5=CC(=O)C=C[C@]5(C)[C@@]4(F)[C@@H](O)C[C@]3(C)[C@]2(C(=O)CO)O1 , is fold change less than 1?
y

Answer whether the compound O=C1NC(=O)C(c2c[nH]c3ccccc23)=C1c1c[nH]c2ccccc12 has fold change strictly less than 1
y

----------
Method summary: inhibitors of polyQ protein aggregation (AID 1604)
Study conditions: polyglutamine-induced protein aggregation inhibition assay; stronger effect = higher value; concentration not given here
// label = Y if inhibition of aggregation is not less than 50%, otherwise N

Answer whether inhibition of aggregation of CCCN(CCC)S(=O)(=O)c1ccc(C(=O)O)cc1 is greater than or equal to 50%.
Y

Answer whether inhibition of aggregation of NS(=O)(=O)c1cc(C2(O)NC(=O)c3ccccc32)ccc1Cl (configuration not stated) is greater than or equal to 50%.
Y

API: above_or_equal(metric=inhibition of aggregation, cutoff=50%) for item CN(C)CCCN1c2ccccc2CCc2ccccc21
N

Is inhibition of aggregation for NS(=O)(=O)c1cc2c(cc1Cl)NC=NS2(=O)=O at or above 50%?
Y

Has Cn1cnc([N+](=O)[O-])c1Sc1ncnc2nc[nH]c12 a recorded inhibition of aggregation greater than or equal to 50%?
Y

# check: inhibition of aggregation of CN(C)CCCN1c2ccccc2Sc2ccc(Cl)cc21 is greater than or equal to 50%
N

Could you please find out whether Cc1onc(-c2c(Cl)cccc2Cl)c1C(=O)N[C@@H]1C(=O)N2[C@@H]1SC(C)(C)[C@@H]2C(=O)O has inhibition of aggregation that meets 50% or exceeds it?
Y

Hi team, for CC1=C(/C=C/C(C)=C/C=C/C(C)=C/C(=O)O)C(C)(C)CCC1 , is the recorded inhibition of aggregation at or above 50%?
N

Evaluate S=c1nc[nH]c2nc[nH]c12 : inhibition of aggregation at minimum 50%?
Y

Check this molecule for inhibition of aggregation at or above 50%: CC(=O)CCCCn1c(=O)c2c(ncn2C)n(C)c1=O
Y

----------
Assay system: Mitogen-activated protein kinase 7 (Homo sapiens)
Method summary: ERK5 transactivation activators in reporter cells, primary screen, cell-based, HTS (AID 1508626);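 further: luciferase driven by Gal4-ERK5 fusion binding five Gal4 sites before minimal TATA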
Study conditions: HeLa Gal4-ERK5 transactivation, 18 h, at 5 µM, stronger effect = higher value
Active and inactive are the calls of the source.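 How the source made its calls: active means luciferase signal above three times the same-plate solvent-only control wells; inactive means the rest.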
For each of the molecules below, state its luciferase signal.

# input molecule: NS(=O)(=O)c1cc2c(cc1Cl)NC=NS2(=O)=O ; wanted: its luciferase signal
52 AU (inactive)

Name the recorded luciferase signal for CC(=O)OCC(=O)[C@@]1(O)CC[C@H]2[C@@H]3CCC4=CC(=O)CC[C@]4(C)[C@H]3C(=O)C[C@@]21C .
28 AU (inactive)

If you can, please state the reported luciferase signal value of CC(CN1c2ccccc2Sc2ccccc21)N(C)C (centres undefined) .
144 AU (inactive)

Using the record for O=C(O)c1cccnc1 , report its luciferase signal.
44 AU (inactive)

----------
Assay system: Calcium-activated potassium channel subunit alpha-1 (Homo sapiens) + Leucine-rich repeat-containing protein 26 (Homo sapiens) (UniProt Q12791+Q2I0M4)
Sequence (Q2I0M4 whole entry, looked up, one chain of several): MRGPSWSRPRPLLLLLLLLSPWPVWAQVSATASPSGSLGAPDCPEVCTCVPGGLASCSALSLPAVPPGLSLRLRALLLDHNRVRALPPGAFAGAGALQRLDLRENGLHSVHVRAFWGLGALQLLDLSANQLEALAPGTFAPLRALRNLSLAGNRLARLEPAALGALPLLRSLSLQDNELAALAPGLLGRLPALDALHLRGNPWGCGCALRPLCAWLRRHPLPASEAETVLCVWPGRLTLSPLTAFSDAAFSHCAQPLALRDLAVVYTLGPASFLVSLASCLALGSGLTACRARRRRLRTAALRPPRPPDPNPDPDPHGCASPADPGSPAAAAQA
Method summary: modulators of BK channel variants, profiling panel, selectivity assay, cell-based, U2OS BacMam, thallium flux, beta subunits (AID 1259406);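 further: initial slope of Thallos dye fluorescence rise after thallium is added; log ratio against the mean of 0.3% DMSO vehicle wells on the same plate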
Study conditions: F380Y/Slo1WT/gamma1, at 30 µM
Provide the reported log fold change Tl+ flux of each item.
Note: the reply should be a number with no unit written.

Which log fold change Tl+ flux is reported for this compound? CCCSc1ccc2nc(NC(=O)OC)[nH]c2c1
-0.0345

# input compound: OC(CCN1CCCCC1)(c1ccccc1)C1CCCCC1 (stereo not drawn) ; wanted: its log fold change Tl+ flux
-0.0285

Name the recorded log fold change Tl+ flux for NC(=O)c1cnccn1 .
-0.0208

Name the reported log fold change Tl+ flux value associated with the compound CN1C(C(=O)Nc2ccccn2)=C(O)c2ccccc2S1(=O)=O
0.00877

If you can, please state the reported log fold change Tl+ flux value of CC(C)Cc1ccc(C(C)C(=O)O)cc1 (stereo not drawn) .
-0.0267

Which value of log fold change Tl+ flux has been reported for CC[C@H](C)C(=O)O[C@H]1C[C@@H](C)C=C2C=C[C@H](C)[C@H](CC[C@@H]3C[C@@H](O)CC(=O)O3)[C@H]21 in the records?
0.025

For Cc1nc2ccccn2c(=O)c1CCN1CCC(C(=O)c2ccc(F)cc2)CC1 , what is its reported log fold change Tl+ flux?
-0.0679

Recorded log fold change Tl+ flux of COc1ccc2c(c1)c(CC(=O)O)c(C)n2C(=O)c1ccc(Cl)cc1 , please.
0.0683

What does the record list as log fold change Tl+ flux for COCCOC(=O)C1=C(C)NC(C)=C(C(=O)OC(C)C)C1c1cccc([N+](=O)[O-])c1 (stereo not drawn) ?
0.0377

Which log fold change Tl+ flux value belongs to C=C(CC)C(=O)c1ccc(OCC(=O)O)c(Cl)c1Cl ?
0.0507

What value of log fold change Tl+ flux has been reported for the following compound? Cc1cn([C@H]2C[C@H](N=[N+]=[N-])[C@@H](CO)O2)c(=O)[nH]c1=O
0.0181

Endpoint output: log fold change Tl+ flux of CCOC(=O)C1=C(C)NC(C)=C(C(=O)OC)C1c1cccc([N+](=O)[O-])c1 (stereo not drawn) . Value?
0.00177

For the compound NC(N)=NC(=O)c1nc(Cl)c(N)nc1N , what log fold change Tl+ flux is on record?
0.0238

Fill blank: measured log fold change Tl+ flux of the compound COc1cc([C@@H]2c3cc4c(cc3[C@H](O)[C@H]3COC(=O)[C@H]23)OCO4)cc(OC)c1OC is ____.
0.0135

What value of log fold change Tl+ flux has been recorded for this entry: COc1ccc2cc(CCC(C)=O)ccc2c1
-0.0634

Look up log fold change Tl+ flux for this compound: Nc1nc2c(ncn2COCCO)c(=O)[nH]1
-0.0276

For Nc1nc(N)c2nc(-c3ccccc3)c(N)nc2n1 , what is its reported log fold change Tl+ flux?
0.00721

Using the record for CN[C@@H]1[C@H](O)[C@H](NC)[C@H]2O[C@@]3(O)C(=O)C[C@@H](C)O[C@H]3O[C@@H]2[C@H]1O , report its log fold change Tl+ flux.
0.021

# lookup: log fold change Tl+ flux of Cc1onc(-c2ccccc2)c1-c1ccc(S(N)(=O)=O)cc1
0.00659

Field request: log fold change Tl+ flux | item: CCc1cc(C(N)=S)ccn1
0.00124

Form field: reported log fold change Tl+ flux of CN(C)CCc1c[nH]c2ccc(C[C@H]3COC(=O)N3)cc12
0.0131

Item CCOC(=O)[C@H](CCc1ccccc1)N[C@H]1CCc2ccccc2N(CC(=O)O)C1=O has what recorded log fold change Tl+ flux?
0.0131

// log fold change Tl+ flux lookup, key: CCN(CC)CCNC(=O)c1ccc(N)cc1
0.0259

----------
Assay system: Cellular tumor antigen p53 (Homo sapiens) (UniProt P04637)
Sequence (P04637 whole entry, looked up): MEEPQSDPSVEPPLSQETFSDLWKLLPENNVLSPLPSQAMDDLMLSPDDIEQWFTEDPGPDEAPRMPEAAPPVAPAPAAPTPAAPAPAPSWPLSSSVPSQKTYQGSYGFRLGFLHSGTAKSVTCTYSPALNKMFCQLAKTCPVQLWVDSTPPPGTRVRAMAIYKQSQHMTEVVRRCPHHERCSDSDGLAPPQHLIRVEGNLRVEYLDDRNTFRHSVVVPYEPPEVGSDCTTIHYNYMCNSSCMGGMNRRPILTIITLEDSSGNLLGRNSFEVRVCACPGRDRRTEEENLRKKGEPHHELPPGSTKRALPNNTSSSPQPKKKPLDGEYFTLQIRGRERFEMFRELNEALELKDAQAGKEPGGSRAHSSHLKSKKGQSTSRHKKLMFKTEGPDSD
Method summary: kinase inhibitors altering GFP-p53 stability in HPV16-positive cells, imaging, known kinase inhibitor set, EGFP/DsRed ratio (AID 1053116);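 further: cells exposed to compounds for 24 h at 37 °C before reading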
Study conditions: stronger effect = higher value
Label Y when EGFP/DsRed ratio is at or above 0.1; otherwise label N.

Hi, just wondering whether CCn1c(-c2nonc2N)nc2c(C#CC(C)(C)O)ncc(OC[C@@H]3CCCN3)c21 shows EGFP/DsRed ratio of 0.1 or higher.
Y

Determine whether measured EGFP/DsRed ratio meets or exceeds 0.1 for Cn1cc(C2=C(c3cn(C)c4c([N+](=O)[O-])cccc34)C(=O)NC2=O)c2ccccc21
Y

Say whether COc1cccc2c1c(C1=C(c3cn(C)c4ccccc34)C(=O)NC1=O)cn2C shows EGFP/DsRed ratio of 0.1 or more.
Y

Does Nc1nccc(-c2c(-c3ccc(F)cc3)nn3cc(C(F)(F)F)ccc23)n1 have a reported EGFP/DsRed ratio of at least 0.1?
Y

Does the reported EGFP/DsRed ratio for COc1cc[nH]c1C=C1C(=O)Nc2ccc(F)c(C#CC3(O)CCOCC3)c21 fall at or above the 0.1 mark?
Y

Say whether COc1ccc(N2Cc3cnc(Nc4ccccc4)nc3N(C3CCC(O)C3)C2=O)cc1 (stereo not given) shows EGFP/DsRed ratio of 0.1 or more.
N

Could you please find out whether CN(C)CCOc1ccc(-c2nc(-c3ccc4c(c3)CC/C4=N\O)c(-c3ccncc3)[nH]2)cc1 has EGFP/DsRed ratio that meets 0.1 or exceeds it?
Y

EGFP/DsRed ratio >= 0.1 for N#Cc1c(NC(=O)c2ccccc2F)sc2c1CCCC2 ?
N

// inclusive: EGFP/DsRed ratio at least 0.1? input: O=C(Nc1n[nH]c2nc(-c3ccco3)ccc12)C1CC1
N

# check: EGFP/DsRed ratio of COc1ccc2cc(-c3c(-c4ccncc4)nc(-c4ccc(S(C)=O)cc4C)n3C)ccc2c1 (stereo not given) is greater than or equal to 0.1
Y

API: above_or_equal(metric=EGFP/DsRed ratio, cutoff=0.1) for item O=C1NC(=NCc2ccccn2)SC1=Cc1ccc2ncccc2c1
Y

Quick check: does Nc1nonc1-c1nc2cnccc2n1C1CCCCC1 have EGFP/DsRed ratio greater than or equal to 0.1?
N

Is it the case that CN(C)c1cc2c(Nc3ccc4nc(Cc5ccccc5)[nH]c4c3)ncnc2cn1 has EGFP/DsRed ratio reaching or exceeding 0.1?
N

Reported EGFP/DsRed ratio reaches at least 0.1 for COc1cc2c(cc1Nc1nc(Nc3cccc(F)c3C(N)=O)c3cc[nH]c3n1)N(C(=O)CN1CCN(C(C)C)CC1)CC2 ?
Y

Check this compound for EGFP/DsRed ratio at or above 0.1: c1cc(-c2cnn3nc(N4CCOCC4)ccc23)nc(NC2CC2)n1
N

Is the recorded value of EGFP/DsRed ratio equal to or greater than 0.1 for this compound? Cn1cc(C2=C(c3cn(CCO)c4ccccc34)C(=O)NC2=O)c2ccccc21
Y

Kindly determine if EGFP/DsRed ratio recorded for Cn1cc(C2=C(c3cn(C)c4ccc(N)cc34)C(=O)NC2=O)c2ccccc21 is above or exactly 0.1.
Y

Could you please find out whether Cn1cc(C2=C(c3ccsc3)C(=O)NC2=O)c2ccccc21 has EGFP/DsRed ratio that meets 0.1 or exceeds it?
Y
